The reported measurements were obtained from patent US5618812A.

Reported IC50 by item:
Biological target: CCK-A (Rattus norvegicus, UniProt P30551)
Sequence (P30551 whole entry): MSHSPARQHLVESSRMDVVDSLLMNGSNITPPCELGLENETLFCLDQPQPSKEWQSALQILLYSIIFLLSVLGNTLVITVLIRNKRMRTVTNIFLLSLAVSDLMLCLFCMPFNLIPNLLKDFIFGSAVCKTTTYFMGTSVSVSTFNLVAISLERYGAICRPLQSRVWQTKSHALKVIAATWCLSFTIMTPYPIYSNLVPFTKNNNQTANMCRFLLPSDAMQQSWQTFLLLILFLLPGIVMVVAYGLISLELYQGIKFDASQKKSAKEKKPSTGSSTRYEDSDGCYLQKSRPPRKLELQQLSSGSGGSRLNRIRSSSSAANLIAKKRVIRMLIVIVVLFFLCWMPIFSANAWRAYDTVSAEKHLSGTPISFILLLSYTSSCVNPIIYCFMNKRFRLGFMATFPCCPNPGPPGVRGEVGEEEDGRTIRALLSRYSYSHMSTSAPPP
Test: biochemical
Assay type: binding
Conditions: rat pancreas (CCK-A), 125I-CCK; read-out: CCK RECEPTOR BINDING RESULTS IC50 125I-CCK Pancreas
Where a name gives a salt, the structure may show the parent alone.
The reply should contain only the number, in nM.

Recorded IC50, per entry:
* CCN1C(=O)C(NC(=O)Nc2cccc(C)c2)N=C(N2CCC(C)(C)CC2)c2ccccc21 (single isomer, unassigned) [Example 30] | 347
* Cc1cccc(NC(=O)NC2N=C(N3CCC(C)(C)CC3)c3ccccc3N(C)C2=O)c1 (single isomer, unassigned) [10 (enantiomer A)] | 421
* CN1C(=O)C(NC(=O)Nc2cccc(I)c2)N=C(N2CC3CCC(CC3)C2)c2ccccc21 (racemic) [Example 47] | 26.6
* Cc1cccc(NC(=O)NC2N=C(N3CC4CCC3CC4)c3ccccc3N(C)C2=O)c1 (racemic) [Example 51] | 28.5

Next:
I would be grateful if you could share the reported IC50 for Cc1cccc(NC(=O)NC2N=C(N(C)C3CCCCC3)c3ccccc3N(C)C2=O)c1 (single isomer, unassigned; (-)) [Example 64, Hydrochloride] . 2070
